Read-out: Plasminogen activator inhibitor-1 (PAI1), SERPINE1 (gene 5054)
Assay: BSK_BE3C_PAI1: BioMAP Diversity Plus: BE3C Assay for Plasminogen activator inhibitor-1 (PAI1) Biomarker Activity (AID 2283037)
Settings: primary human bronchial epithelial cells; actives raise or lower the signal
The source made the active and inactive calls. Rule for the calls: active = hit-call score of the fitted dose curve at least 0.9, where 1 is the maximum; inactive = score below 0.9.
Hello, when you answer, please use one of the following outcomes: active, inactive

Example cases with answers are listed next.
- compound: "O=C(O)C(Cl)Cl"
  labelValue: "inactive"
- compound: "COP(=O)(CCC(=O)NCO)OC"
  labelValue: "inactive"
- compound: "OCC(F)(F)OC(F)(F)C(F)(F)OC(F)(F)C(F)(F)OC(F)(F)F"
  labelValue: "inactive"
- compound: "CCOC(=O)c1ccccc1C(=O)OCC"
  labelValue: "inactive"
- compound: "O=S1(=O)OCC2C(CO1)C1(Cl)C(Cl)=C(Cl)C2(Cl)C1(Cl)Cl (centres undefined)"
  labelValue: "inactive"
- compound: "OCC1CO1 (centres undefined)"
  labelValue: "inactive"

Req: Hello, I am checking results. What call was entered for CCC1(c2ccccc2)C(=O)N=C(O)NC1=O (centres undefined) ?
Resp: inactive

Req: Hello, I am checking results. What call was entered for ClC1=C(Cl)C2(Cl)C3C(Cl)C(Cl)CC3C1(Cl)C2(Cl)Cl (centres undefined) ?
Resp: active

Req: Hello, I am checking results. What call was entered for `CC(C)(C)OOC(C)(C)C` ?
Resp: inactive

Data origin: PubChem BioAssay (EPA / NIEHS)
